# Target: Human plasma kallikrein (Homo sapiens (Human), UniProt P03952)
# Sequence (P03952 391-638): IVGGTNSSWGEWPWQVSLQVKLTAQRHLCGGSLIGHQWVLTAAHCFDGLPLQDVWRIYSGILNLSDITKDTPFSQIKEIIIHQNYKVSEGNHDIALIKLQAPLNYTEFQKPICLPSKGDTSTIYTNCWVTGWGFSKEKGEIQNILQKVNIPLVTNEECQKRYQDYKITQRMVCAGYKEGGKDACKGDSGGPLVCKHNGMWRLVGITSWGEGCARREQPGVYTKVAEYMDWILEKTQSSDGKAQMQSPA
# Sequence (P03952 20-390 partner): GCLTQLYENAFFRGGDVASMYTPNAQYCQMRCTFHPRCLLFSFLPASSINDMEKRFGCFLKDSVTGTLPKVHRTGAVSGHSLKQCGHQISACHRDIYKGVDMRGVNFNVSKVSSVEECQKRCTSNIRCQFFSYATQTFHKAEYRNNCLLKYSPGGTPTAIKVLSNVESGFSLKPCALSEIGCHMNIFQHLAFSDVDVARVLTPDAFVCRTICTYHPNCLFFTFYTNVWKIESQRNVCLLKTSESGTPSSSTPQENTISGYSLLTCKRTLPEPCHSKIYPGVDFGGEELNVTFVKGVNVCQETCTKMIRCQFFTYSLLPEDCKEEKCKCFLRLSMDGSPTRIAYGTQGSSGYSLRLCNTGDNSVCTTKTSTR
# Test name: Kallikrein Assay (fluorogenic substrate Acetyl-K-P-R-AFC)
# Condition set: Plasma Kallikrein (PKal)
pIC50: −log10 of the molar value.
Metric name: pIC50

[A] Cc1ncc(-c2c(C(F)F)ccc(Cl)c2F)nc1C(=O)Nc1cnn(C(CO)c2cnc(N3C[C@H]4C[C@H]4C3=O)nc2)c1 (single isomer, unassigned) [Example 165]
[B] Cc1nc(N2C[C@H]3C[C@H]3C2=O)ncc1[C@@H](C)n1cc(NC(=O)c2cncc(-c3c(C(F)F)ccc(Cl)c3F)n2)cn1 [Example 23]
[C] C[C@@H](c1cnc(N2C[C@H]3C[C@H]3C2=O)nc1)n1cc(NC(=O)c2nc(-c3c(C(F)F)ccc(Cl)c3F)cnc2C(O)C(F)(F)F)cn1 (single isomer, unassigned) [Example 176]
# rank_down: sort by pIC50, max first Respond with the label ranking, as requested.
C, A, B

* * *

Record: IC50 reported on human Factor XIa (Homo sapiens (Human)).
Sequence (P03951 388-625 limits assumed): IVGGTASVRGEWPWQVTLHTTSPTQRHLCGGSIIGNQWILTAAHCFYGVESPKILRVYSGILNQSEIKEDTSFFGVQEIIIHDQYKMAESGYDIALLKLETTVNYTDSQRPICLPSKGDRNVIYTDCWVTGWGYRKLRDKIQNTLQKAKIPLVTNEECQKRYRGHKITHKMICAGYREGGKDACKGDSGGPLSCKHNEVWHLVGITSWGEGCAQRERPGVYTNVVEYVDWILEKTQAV
Sequence (P03951 19-387 partner limits assumed): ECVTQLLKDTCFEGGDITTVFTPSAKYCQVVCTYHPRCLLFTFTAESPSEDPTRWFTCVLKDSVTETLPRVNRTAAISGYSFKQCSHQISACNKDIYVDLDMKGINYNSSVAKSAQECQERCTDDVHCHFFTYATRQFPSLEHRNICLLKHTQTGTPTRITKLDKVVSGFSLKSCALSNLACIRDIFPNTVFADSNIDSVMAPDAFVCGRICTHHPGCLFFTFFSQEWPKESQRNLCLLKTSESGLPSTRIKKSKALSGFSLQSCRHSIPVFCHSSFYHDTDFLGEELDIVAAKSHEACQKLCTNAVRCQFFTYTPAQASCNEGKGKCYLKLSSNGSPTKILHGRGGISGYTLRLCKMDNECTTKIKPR
Metric name: IC50 (µM)

Please review the entries below; each comes with its answer.
Molecule | Metric name | Result
Cc1cc(N2C[C@H]3C[C@H]3C2=O)ncc1C(C)n1cc(NC(=O)c2nc(-c3c(C(F)F)ccc(Cl)c3F)cnc2CO)cn1 (single isomer, unassigned) [Example 204] | IC50 | 2.52
Cc1nc(N2C[C@H]3C[C@H]3C2=O)ncc1Cn1cc(NC(=O)c2nc(-c3c(S(C)(=O)=O)ccc(Cl)c3F)cnc2C)cn1 | IC50 | 2.07

[P] Cc1cc(C(C)n2cc(NC(=O)c3cncc(-c4c(C(F)F)ccc(Cl)c4F)n3)cn2)cnc1N1C[C@H]2C[C@H]2C1=O (single isomer, unassigned)
[Q] Cc1c(C(C)n2cc(NC(=O)c3cncc(-c4c(C(F)F)ccc(Cl)c4F)n3)cn2)cnc(N2C[C@H]3C[C@H]3C2=O)c1C (single isomer, unassigned) [Example 152]
For P and Q , which recorded IC50 is lower? In your reply, give the label of the chosen option.
Q
(Q: 0.197 µM, P: 0.389 µM)

* * *

# Target: Human plasma kallikrein (Homo sapiens (Human), UniProt P03952)
# Test name: Kallikrein Assay (fluorogenic substrate Acetyl-K-P-R-AFC)
# Condition set: Plasma Kallikrein (PKal)
Metric name: IC50 (nM)

Please review the entries below; each comes with its answer.
Molecule | IC50 [nM]
COc1cc(C(C)n2cc(NC(=O)c3nc(-c4c(C(F)F)ccc(Cl)c4F)cnc3C)cn2)cnc1N1C[C@H]2C[C@H]2C1=O (single isomer, unassigned) [Example 218] | 1.8
Cc1ncc(-c2c(C(F)F)ccc(Cl)c2F)nc1C(=O)Nc1cnn(C(CO)c2ccc(N3CC4CC4C3=O)nc2)c1 (single isomer, unassigned) [Example 163] | 9.2

[P] COc1c(N2C[C@H]3C[C@H]3C2=O)ncc(C(C)n2cc(NC(=O)c3cncc(-c4c(C(F)F)ccc(Cl)c4F)n3)cn2)c1C (single isomer, unassigned) [Example 155]
[Q] Cc1ncc(-c2c(C#N)ccc(Cl)c2F)nc1C(=O)Nc1cnn(C(CO)c2cnc(N3C[C@H]4C[C@H]4C3=O)nc2)c1 (single isomer, unassigned) [Example 166]
For P and Q , which recorded IC50 is lower? In your reply, give the label of the chosen option.
P
(P: 7.1 nM, Q: 19.7 nM)

[1] Cc1c(N2C[C@H]3C[C@H]3C2=O)cnc(C(C)n2cc(NC(=O)c3cncc(-c4c(C(F)F)ccc(Cl)c4F)n3)cn2)c1C (single isomer, unassigned) [Example 243]
[2] CC(c1ncc(N2C[C@H]3C[C@H]3C2=O)cc1F)n1cc(NC(=O)c2cncc(-c3c(C(F)F)ccc(Cl)c3F)n2)cn1 (single isomer, unassigned) [Example 146]
For 1 and 2 , which recorded IC50 is lower? In your reply, give the label of the chosen option.
1
(1: 0.6 nM, 2: 9.8 nM)

[1] Cc1ncc(-c2c(C#N)ccc(Cl)c2F)nc1C(=O)Nc1cnn(C(C)c2cnc(N3C[C@H]4C[C@H]4C3=O)c(C)n2)c1 (single isomer, unassigned) [Example 234]
[2] O=C(Nc1cnn(Cc2cnc(N3C[C@H]4C[C@H]4C3=O)nc2)c1)c1nc(-c2c(C(F)F)ccc(Cl)c2F)cnc1COC1CC1 [Example 116]
Between 1 and 2 , whose measured IC50 reads higher? In your reply, give the label of the chosen option.
2
(2: 19.1 nM, 1: 1 nM)

[P] Cc1cc(Cn2ncc(NC(=O)c3nc(-c4c(C(F)F)ccc(Cl)c4F)cnc3C)n2)cnc1N1C[C@H]2C[C@H]2C1=O [Example 187]
[Q] Cc1ncc(-c2c(C(F)F)ccc(Cl)c2F)nc1C(=O)Nc1cnn(C(C)c2ncc(N3C[C@H]4C[C@H]4C3=O)cn2)c1 (single isomer, unassigned) [Example 6]
Between P and Q , whose measured IC50 reads higher? In your reply, give the label of the chosen option.
P
(P: 4.3 nM, Q: 0.9 nM)

[a] Cc1ncc(-c2c(C(F)F)ccc(Cl)c2F)nc1C(=O)Nc1cnn(C(C)c2ncc(N3C[C@H]4C[C@H]4C3=O)c(C)c2F)c1 (single isomer, unassigned) [Example 244]
[b] CC(c1ccc(N2C[C@H]3C[C@H]3C2=O)nc1)n1cc(NC(=O)c2cncc(-c3c(C#N)ccc(Cl)c3F)n2)cn1 (single isomer, unassigned) [Example 89]
For a and b , which recorded IC50 is lower? In your reply, give the label of the chosen option.
b

[I] [2H]C([2H])(O)c1ncc(-c2c(C(F)F)ccc(Cl)c2F)nc1C(=O)Nc1cnn([C@@H](C)c2cnc(N3C[C@H]4C[C@H]4C3=O)nc2)c1 [Example 182]
[II] Cc1cc(N2C[C@H]3C[C@H]3C2=O)nnc1Cn1cc(NC(=O)c2nc(-c3c(C(F)F)ccc(Cl)c3F)cnc2C)cn1 [Example 84]
Between I and II , whose measured IC50 reads higher? In your reply, give the label of the chosen option.
II

[1] Cc1cc([C@@H](C)n2cc(NC(=O)c3nc(-c4c(OC(F)F)ccc(Cl)c4F)cnc3CO)cn2)cnc1N1C[C@H]2C[C@H]2C1=O [Example 227]
[2] Cc1ncc(-c2c(C(F)F)ccc(Cl)c2F)nc1C(=O)Nc1cnn(C(C)c2cnc(N3C[C@H]4C[C@H]4C3=O)c(OC(F)F)c2C)c1 (single isomer, unassigned) [Example 224]
[3] Cc1ncc(-c2c(C(F)F)ccc(Cl)c2F)nc1C(=O)Nc1cnn(C(C)c2cnc(N3C[C@H]4C[C@H]4C3=O)c(NC(=O)OC(C)(C)C)c2)c1 (mixture of isomers) [Example 96]
[4] Cc1nc(N2C[C@H]3C[C@H]3C2=O)ncc1Cn1cc(NC(=O)c2nc(-c3c(C(F)F)ccc(Cl)c3F)cnc2C)nn1 [Example 183]
# sort list by recorded IC50, greatest to least Respond with the label ranking, as requested.
2, 4, 3, 1
(2: 66.1 nM, 4: 30.6 nM, 3: 10.8 nM, 1: 0.6 nM)

[I] Cc1cc(C(C)n2cc(NC(=O)c3cncc(-c4c(OC(F)F)ccc(Cl)c4F)n3)cn2)nnc1N1C[C@H]2C[C@H]2C1=O (single isomer, unassigned) [Example 114]
[II] CC(c1ncc(N2C[C@H]3C[C@H]3C2=O)cn1)n1cc(NC(=O)c2cncc(-c3c(C(F)F)ccc(Cl)c3F)n2)cn1 (single isomer, unassigned) [Example 5]
For I and II , which recorded IC50 is lower? In your reply, give the label of the chosen option.
I

[1] Cc1c(C(C)n2cc(NC(=O)c3cncc(-c4c(C(F)F)ccc(Cl)c4F)n3)cn2)cnc(N2C[C@H]3C[C@H]3C2=O)c1F (stereo partly shown) [Example 45]
[2] Cc1ncc(-c2c(C(F)F)ccc(Cl)c2F)nc1C(=O)Nc1cnn(C(C)c2cnc(N3C[C@H]4C[C@H]4C3=O)c(F)c2)c1 (single isomer, unassigned) [Example 51]
For 1 and 2 , which recorded IC50 is lower? In your reply, give the label of the chosen option.
2
(2: 2.4 nM, 1: 6.1 nM)

* * *

# Target: Human plasma kallikrein (Homo sapiens (Human), UniProt P03952)
# Test name: Kallikrein Assay (fluorogenic substrate Acetyl-K-P-R-AFC)
# Condition set: Plasma Kallikrein (PKal)
pIC50: −log10 of the molar value.
Metric name: pIC50

Please review the entries below; each comes with its answer.
Compound | pIC50
Cc1ncc(-c2c(C(F)F)ccc(Cl)c2F)nc1C(=O)Nc1cnn(C(C)c2ccc(N3CC4CC4C3=O)nc2)c1 (single isomer, unassigned) [Example 75] | 8.32
Cc1ncc(-c2c(OC(F)F)ccc(Cl)c2F)nc1C(=O)Nc1cnn(C(C)c2cnc(N3C[C@H]4C[C@H]4C3=O)c(C)n2)c1 (single isomer, unassigned) [Example 123] | 9.00
Cc1cc(C(C)n2cc(NC(=O)c3nc(-c4c(C(F)F)ccc(Cl)c4F)cnc3C(C)O)cn2)nnc1N1C[C@H]2C[C@H]2C1=O (single isomer, unassigned) [Example 229] | 9.43
Cc1ncc(-c2c(C(F)F)ccc(Cl)c2F)nc1C(=O)Nc1cnn(C(C)c2cnc(N3C[C@H]4C[C@H]4C3=O)c3c2OC(F)(F)O3)c1 (single isomer, unassigned) [Example 246] | 8.22
Cc1cc([C@@H](C)n2cc(NC(=O)c3nc(-c4c(OC(F)F)ccc(Cl)c4F)cnc3C)cn2)nnc1N1C[C@H]2C[C@H]2C1=O [Example 40] | 8.74
O=C(Nc1cnn(Cc2ccc(N3C[C@H]4C[C@H]4C3=O)nc2)c1)c1cncc(-c2c(C(F)F)ccc(Cl)c2F)n1 [Example 9] | 9.00

[1] C[C@H](c1cnc(N2C[C@H]3C[C@H]3C2=O)nc1N)n1cc(NC(=O)c2cncc(-c3c(C(F)F)ccc(Cl)c3F)n2)cn1 [Example 170]
[2] CC(c1cnc(N2C[C@H]3C[C@H]3C2=O)c(C(F)F)c1)n1cc(NC(=O)c2cncc(-c3c(C(F)F)ccc(Cl)c3F)n2)cn1 (single isomer, unassigned) [Example 77]
[3] Cc1c(C(CO)n2cc(NC(=O)c3cncc(-c4c(C(F)F)ccc(Cl)c4F)n3)cn2)cnc(N2C[C@H]3C[C@H]3C2=O)c1C (single isomer, unassigned) [Example 168]
[4] Cc1nc(N2C[C@@H]3C[C@@H]3C2=O)ncc1[C@H](CO)n1cc(NC(=O)c2cncc(-c3c(C(F)F)ccc(Cl)c3F)n2)cn1 [Example 158]
[5] Cc1cc(C(C)n2cc(NC(=O)c3nc(-c4c(C(F)F)ccc(Cl)c4F)cnc3CO)cn2)cnc1N1C[C@H]2C[C@H]2C1=O (single isomer, unassigned) [Example 199]
Your job: order these 5 records by pIC50, ascending. Respond with the label ranking, as requested.
4, 1, 2, 3, 5
(4: 5.57, 1: 7.68, 2: 7.90, 3: 9.40, 5: 9.70)

[a] Cc1nc(N2C[C@H]3C[C@H]3C2=O)ncc1Cn1cc(NC(=O)c2nc(-c3c(S(C)(=O)=O)ccc(Cl)c3F)cnc2C)cn1 [Example 85]
[b] Cc1c(N2C[C@H]3C[C@H]3C2=O)cnc(C(C)n2cc(NC(=O)c3cncc(-c4c(C(F)F)ccc(Cl)c4F)n3)cn2)c1N (single isomer, unassigned) [Example 117]
[c] Cc1ncc(-c2c(OC(F)F)ccc(Cl)c2F)nc1C(=O)Nc1cnn(C(C)c2cnc(N3C[C@H]4C[C@H]4C3=O)c(F)c2C)c1 (single isomer, unassigned) [Example 129]
[d] Cc1ncc(-c2c(OC(F)F)ccc(Cl)c2F)nc1C(=O)Nc1cnn(C(C)c2cnc(N3C[C@H]4C[C@H]4C3=O)c(F)c2C)c1 (single isomer, unassigned) [Example 130]
Your job: order these 4 records by pIC50, ascending. Respond with the label ranking, as requested.
a, c, b, d

[1] CC(c1cnc(N2C[C@H]3C[C@H]3C2=O)c(C(F)F)c1)n1cc(NC(=O)c2cncc(-c3c(C(F)F)ccc(Cl)c3F)n2)cn1 (single isomer, unassigned) [Example 78]
[2] Cc1c(C(C)n2cc(NC(=O)c3cncc(-c4c(OC(F)F)ccc(Cl)c4F)n3)cn2)cnc(N2C[C@H]3C[C@H]3C2=O)c1C (single isomer, unassigned) [Example 104]
For 1 and 2 , which recorded pIC50 is lower? In your reply, give the label of the chosen option.
1
